Assay: Stability of the compounds in human serum (RP-HPLC)
Type: in vitro ADME
Settings: male, 37 °C, read-out: Half-life (t1/2)
We begin with a simple list: items and their reported half-life at 200 µM.

{"compound": "C=CCSSCCC(=O)OCC [Compound 4]", "sign_qualifier": "<", "half-life at 200 µM (h)": 0.5}
{"compound": "CC(=O)NSC(=O)c1ccccc1 [Compound 8]", "sign_qualifier": "<", "half-life at 200 µM (h)": 0.5}
{"compound": "COC(=O)c1ccc(C(N)=S)cc1 [Compound 18]", "sign_qualifier": "=", "half-life at 200 µM (h)": 3.7}
{"compound": "CCOC(=O)COc1ccc(-c2cc(=S)ss2)cc1 [Compound 14]", "sign_qualifier": "=", "half-life at 200 µM (h)": 0.5}
{"compound": "COC(=O)c1ccc(-c2ssc(=S)c2-c2ccccc2)cc1 [Compound 10]", "sign_qualifier": "=", "half-life at 200 µM (h)": 2.4}
{"compound": "CCOC(=O)c1ccc(-c2cssc2=S)cc1 [Compound 12]", "sign_qualifier": "=", "half-life at 200 µM (h)": 2.7}
{"compound": "COC(=O)c1csc(=S)s1 [Compound 16]", "sign_qualifier": "=", "half-life at 200 µM (h)": 1.5}

###

// % Compd ± SE lookup, one value per entry
Test: Stability of the compounds in human serum (RP-HPLC)
Assay type: in vitro ADME
Details: 37 °C, 200 µM, 24 h

{"compound": "C=CCSSCCC(=O)O", "% Compd ± SE (%)": 44}
{"compound": "C=CCSSCC(NC(C)=O)C(=O)O (stereo not drawn)", "% Compd ± SE (%)": 16}
{"compound": "O=C(O)c1ccc(-c2ssc(=S)c2-c2ccccc2)cc1", "% Compd ± SE (%)": 83}
{"compound": "O=C(O)c1csc(=S)s1", "% Compd ± SE (%)": 94.8}
{"compound": "C=CCSCC(NC(C)=O)C(=O)O (stereo not drawn)", "% Compd ± SE (%)": 8.0}
{"compound": "O=C(O)CCC(=O)NSC(=O)c1ccccc1", "% Compd ± SE (%)": 0}
{"compound": "O=C(O)COc1ccc(-c2cc(=S)ss2)cc1", "% Compd ± SE (%)": 94.3}
{"compound": "O=C(O)c1ccc(-c2cssc2=S)cc1", "% Compd ± SE (%)": 53}
{"compound": "NC(=S)c1ccc(C(=O)O)cc1", "% Compd ± SE (%)": 64.7}

###

Assay: Stability of the compounds in human serum (RP-HPLC)
Type: in vitro ADME
Conditions: 37 °C, 200 µM, 4 h
Experimental: A solution of each compound (10 mM) in DMSO was added to human serum (obtained by filtration and sterilization from AB, Sigma-Aldrich (Merck KGaA, 64,271 Darmstadt, Germany) male human blood) and was preheated to 37 °C to obtain a final concentration of 200 µM. […] The mixture was centrifuged for 10 min at 2150× g, and the clear supernatant was filtered (PTFE filters, 0.45 µm, VWR (VWR International S.r.l., Milano, Italy)) and analyzed by RP-HPLC as described below. […]
Give Met when the value for % Compd ± SE is at least 80%. Give Not met when it is less.

{"compound": "O=C(O)c1ccc(-c2ssc(=S)c2-c2ccccc2)cc1 [Compound 9]", "class_assignment": "Met"}
{"compound": "O=C(O)c1ccc(-c2cssc2=S)cc1 [Compound 11]", "class_assignment": "Met"}
{"compound": "C=CCSSCCC(=O)O [Compound 3]", "class_assignment": "Not met"}
{"compound": "NC(=S)c1ccc(C(=O)O)cc1 [Compound 17]", "class_assignment": "Met"}
{"compound": "O=C(O)COc1ccc(-c2cc(=S)ss2)cc1 [Compound 13]", "class_assignment": "Met"}
{"compound": "C=CCSSCC(NC(C)=O)C(=O)O (stereo not drawn) [Compound 5]", "class_assignment": "Not met"}
{"compound": "O=C(O)CCC(=O)NSC(=O)c1ccccc1 [Compound 7]", "class_assignment": "Not met"}
{"compound": "O=C(O)c1csc(=S)s1 [Compound 15]", "class_assignment": "Met"}
{"compound": "C=CCSCC(NC(C)=O)C(=O)O (stereo not drawn) [Compound 1]", "class_assignment": "Not met"}
